- Tgt: T1, cynomolgus CX3CR1 (cynomolgus monkey (Macaca fascicularis), UniProt P49238 1-355 (human entry))
- T1 construct: Overexpressed on CHO K1 cells; also called cyno CX3CR1; cyCX3CR1
- T1 chain: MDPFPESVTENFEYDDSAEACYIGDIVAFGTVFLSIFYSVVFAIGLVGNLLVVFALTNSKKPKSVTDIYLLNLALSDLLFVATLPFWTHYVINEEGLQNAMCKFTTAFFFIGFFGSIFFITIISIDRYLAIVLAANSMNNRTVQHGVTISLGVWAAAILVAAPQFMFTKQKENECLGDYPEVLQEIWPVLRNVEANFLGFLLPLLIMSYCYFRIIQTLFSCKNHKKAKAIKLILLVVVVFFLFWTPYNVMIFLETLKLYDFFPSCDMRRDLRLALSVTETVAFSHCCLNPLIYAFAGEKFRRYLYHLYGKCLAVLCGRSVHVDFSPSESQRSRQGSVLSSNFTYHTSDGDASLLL
- Experiment Summary: competition flow cytometry vs soluble huCX3CL1-AF647 on CHO K1 cyCX3CR1 cells, 30 uM HSA
Reported Endpoint: % inhibition (%)
Supply the numeric figure in %, leaving out any unit text.

Illustrative cases are given below, each with its answer.
A041600041 (VHH, Trivalent ISVD construct (two anti-CX3CR1 ISVDs, one anti-albumin ISVD), C-terminal alanine included in the entry; also called 54A12_SO (E1D)-9GS-66B02_SO-9GS-ALB23002-A) DVQLVESGGGSVQPGGSLRLSCAASGSIFSSTAMAWYRQAPGKQRDLVAVISTVGITKYADSVKGRFTISRDNAKNTVYLQMNSLRPEDTALYYCTSDARRGWDTRYWGQGTLVTVSSGGGGSGGGSEVQLVESGGGSVQPGGSLRLSCAASGSIFSSTAMAWYRQAPGKRRDLVAAINTVGVTKYADSVKGRFTISRDNAKNTVYLQMNSLRPEDTALYYCTSDPRRGWDTRYWGQGTLVTVSSGGGGSGGGSEVQLVESGGGVVQPGGSLRLSCAASGFTFRSFGMSWVRQAPGKGPEWVSSISGSGSDTLYADSVKGRFTISRDNSKNTLYLQMNSLRPEDTALYYCTIGGSLSRSSQGTLVTVSSA: 107
A041600042 (VHH, Trivalent ISVD construct (two anti-CX3CR1 ISVDs, one anti-albumin ISVD), C-terminal alanine included in the entry; also called 66B02_SO (E1D)-20GS-66B02_SO-20GS-ALB23002-A) DVQLVESGGGSVQPGGSLRLSCAASGSIFSSTAMAWYRQAPGKRRDLVAAINTVGVTKYADSVKGRFTISRDNAKNTVYLQMNSLRPEDTALYYCTSDPRRGWDTRYWGQGTLVTVSSGGGGSGGGGSGGGGSGGGGSEVQLVESGGGSVQPGGSLRLSCAASGSIFSSTAMAWYRQAPGKRRDLVAAINTVGVTKYADSVKGRFTISRDNAKNTVYLQMNSLRPEDTALYYCTSDPRRGWDTRYWGQGTLVTVSSGGGGSGGGGSGGGGSGGGGSEVQLVESGGGVVQPGGSLRLSCAASGFTFRSFGMSWVRQAPGKGPEWVSSISGSGSDTLYADSVKGRFTISRDNSKNTLYLQMNSLRPEDTALYYCTIGGSLSRSSQGTLVTVSSA: 104

Let us move to another entry and its % inhibition.
**Q:** Output % inhibition of A041600025 (VHH, Trivalent ISVD construct (two anti-CX3CR1 ISVDs, one anti-albumin ISVD), C-terminal alanine included in the entry; also called 54A12_SO (E1D)-9GS-ALB23002-9GS-54A12_SO-A) DVQLVESGGGSVQPGGSLRLSCAASGSIFSSTAMAWYRQAPGKQRDLVAVISTVGITKYADSVKGRFTISRDNAKNTVYLQMNSLRPEDTALYYCTSDARRGWDTRYWGQGTLVTVSSGGGGSGGGSEVQLVESGGGVVQPGGSLRLSCAASGFTFRSFGMSWVRQAPGKGPEWVSSISGSGSDTLYADSVKGRFTISRDNSKNTLYLQMNSLRPEDTALYYCTIGGSLSRSSQGTLVTVSSGGGGSGGGSEVQLVESGGGSVQPGGSLRLSCAASGSIFSSTAMAWYRQAPGKQRDLVAVISTVGITKYADSVKGRFTISRDNAKNTVYLQMNSLRPEDTALYYCTSDARRGWDTRYWGQGTLVTVSSA
**A:** 104
